molecular target: human PPAR γ (Homo sapiens); construct: PPARγ: aa 165—C-terminus); experiment: In vitro PPAR gamma transactivation assay (GAL4-DBD/PPAR-LBD, luciferase reporter, HEK293); conditions: transfected HEK293 cells, 24 h compound, five concentrations 0.01 to 30 μM, at least three experiments, means; read-out: In vitro activation PPAR γ EC50
Sequence (P37231 238-503 limits assumed): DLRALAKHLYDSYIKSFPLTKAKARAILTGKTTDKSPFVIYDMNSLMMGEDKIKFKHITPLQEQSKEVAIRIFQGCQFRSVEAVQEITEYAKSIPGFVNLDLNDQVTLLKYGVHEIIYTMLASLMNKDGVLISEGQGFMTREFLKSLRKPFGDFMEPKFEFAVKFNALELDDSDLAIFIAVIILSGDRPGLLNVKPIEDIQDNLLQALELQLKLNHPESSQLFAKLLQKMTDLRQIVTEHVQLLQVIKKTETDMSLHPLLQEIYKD
Hi! Just check whether EC50 is below 300 nM. Below gives Met, equal or above gives Not met.

>  <compound>
CCO[C@@H](Cc1ccc(OC/C=C(\C)c2ccc(-c3cc(Cl)ccc3OC)cc2)cc1)C(=O)O [Example 57]

>  <class-label>
Not met

$$$$
>  <compound>
C/C(=C\COc1ccc(CC(OC(C)C)C(=O)O)cc1)c1ccc(-c2ccccc2)cc1 (racemic) [Example 134]

>  <class-label>
Not met

$$$$
>  <compound>
CCO[C@@H](Cc1ccc(OC/C=C(\C)c2ccc(-c3ccc(Br)cc3)cc2)cc1)C(=O)O [Example 4]

>  <class-label>
Not met

$$$$
>  <compound>
CCOC(=O)[C@H](Cc1ccc(OC/C=C(\C)c2ccc3c(c2)Cc2ccccc2-3)cc1)OCC [Example 9]

>  <class-label>
Not met

$$$$
>  <compound>
CCOC(=O)[C@H](Cc1ccc(OC/C=C/c2cc3ccccc3o2)cc1)OCC [Example 27]

>  <class-label>
Met

$$$$
